System: MgrA (MarR family transcriptional regulator), Staphylococcus aureus Newman
procedureDetails: modulators of MgrA DNA binding – biochemical, S. aureus Newman, fluorescence polarization, primary screen (AID 602314);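 note: 0% = protein plus DNA without compound and 100% = DNA alone without protein; higher means less MgrA bound to DNA so lower polarization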
protocolConditions: concentration not given here
Hit rate of the full screen: of about 84,000 compounds, about 110 (0.13%) were called active. Cut-off read from the data, not from the text of the source: active = inhibition above about 30% (passing the limit was not always enough); inactive = the rest. The sample holds actives, similar compounds and a random draw of the others, so the mix is not that of the screen.
Possible outcomes: active, inactive

1. CCN(C(=O)c1cccs1)c1cccc2ccccc12
inactive
2. CCn1c(=O)c2ccccc2n(CC(=O)c2ccc(C)cc2)c1=O
inactive
3. Cc1ccc(NC2SC(=O)NC2=O)cc1 (stereo not drawn)
inactive
4. COc1ccccc1N1C(=O)C(=Cc2ccco2)C(=O)N(c2ccccc2OC)C1=O
inactive
5. COc1ccccc1NC(=O)C1CC(=O)N(CCc2ccccc2)C(=Nc2ccccc2)S1 (stereo not drawn)
inactive
6. CC(C)(C)C/C(=N/O)c1ccccc1
inactive
7. NC(=O)c1sccc1NS(=O)(=O)c1ccc(Cl)c(Cl)c1
inactive
8. Cc1cc(C)cc(C(=O)OCC(=O)Nc2cccc(C(F)(F)F)c2)c1
inactive
9. CCOC(=O)C1=C(C)N(C)C(C)=C(C(=O)OCC)C1c1ccccc1F
inactive
10. COc1ccccc1C=NC12CN3CN(CN(C3)C1)C2
inactive
11. COc1ccc2[nH]c(=O)c(CN(Cc3ccc(C)cc3)C(C)=O)cc2c1
inactive
12. Cc1[nH]ncc1-c1ccccc1
inactive
13. c1ccc2c(c1)CCN2c1nc2ccccc2n2cnnc12
inactive
14. CN(C(=O)CSc1nncc(=O)[nH]1)c1ccccc1
inactive
15. COc1ccc(O)c(/C=N/NC(=O)c2ccn(Cc3ccc(Cl)cc3)n2)c1
inactive
16. COc1cc(C)nc(NN)n1
inactive
17. Cc1ccc2c(c1)NC(c1cc(Cl)cc(Cl)c1O)c1cccn1-2 (stereo not drawn)
inactive
18. CN(Cc1ccccc1)C(=O)c1cccc(-c2nnc(-c3ccccc3)o2)c1
inactive
19. CCN(CC)S(=O)(=O)c1cc2c3c(c1)c(C)cc(=O)n3CCC2
inactive
20. CC(=O)Oc1ccc(C2NC(C(=O)O)CS2)cc1 (stereo not drawn)
inactive
21. COc1ccc(NC(=O)Nc2ccc(N3CCOCC3)cc2)cc1
inactive
22. NC(=O)c1ccccc1N=Cc1ccc2ccccc2c1
inactive
23. O=C(COc1ccc(C2Nc3cccc4cccc(c34)N2)cc1)Nc1ccccc1
inactive
24. Nc1cc(C(=O)OCC(=O)NC2CCCCCC2)ccc1Cl
inactive
25. COc1ccc(C(=O)COC2=C(C#N)C3(CCCC3)C(C#N)C(=S)N2)cc1OC (stereo not drawn)
inactive
26. COc1ccccc1N1C(=O)NC(=O)/C(=C/c2cn(C(C)=O)c3ccccc23)C1=O
inactive
27. Cc1ccc2sc(-c3ccc(NC(=O)C(C)C)cc3)nc2c1
inactive
28. CC1(C)COC(c2cccc(C#N)c2)OC1
inactive
29. C=CCNC(=O)c1ccc2nc(-c3ccco3)c(-c3ccco3)nc2c1
active
30. CCOC(=O)c1cccn1-c1ncc(C(F)(F)F)cc1Cl
inactive
31. CN(C)C(=O)Cn1c(=O)n(S(=O)(=O)c2ccccc2)c2ccccc21
inactive
32. O=C(c1ccc(Br)cc1)c1cc2cc(Br)cc(Br)c2o1
inactive
33. C=CCn1c(=O)c(C(=O)NCC2CCCN2CC)c(O)c2cc(OC)c(OC)cc21 (stereo not drawn)
inactive
34. O=c1c2c3c(sc2ncn1Cc1nn[nH]n1)CCCC3
inactive
35. C=CCNC(=O)c1cc(-c2ccccc2O)on1
inactive
36. c1ccc(NC2CCCCC2)cc1
inactive
37. CCOC(=O)c1ccc(NC(=O)CC2C(=O)N(c3ccc(F)cc3)C(=O)N2Cc2cccs2)cc1 (stereo not drawn)
inactive
38. Cc1ccc(Nc2cc([Se]c3ccccc3)c(N)c3c2C(=O)c2ccccc2C3=O)cc1
inactive
39. Cc1ccccc1CNCc1cccs1
inactive
40. CCCN(CCC)S(=O)(=O)c1cccc2c(N)cccc12
inactive
41. Cn1nnc(NC(=O)COc2ccccc2)n1
inactive
42. O=S(=O)(c1ccc(Br)s1)N1CCCC1
inactive
43. CN(C)c1ncnc2nc[nH]c12
inactive
44. COc1ccc(Nc2nc(Cl)nc(NCCN3CCOCC3)n2)c(OC)c1
inactive
45. O=C(Nc1ccccc1)OCC12COC(c3ccccc3)N1C(c1ccccc1)OC2 (stereo not drawn)
inactive
46. O=C(NC1CCCCNC1=O)c1ccc(N2CCOCC2)nc1 (stereo not drawn)
inactive
47. COc1cc(C2C3=C(CC(C)(C)CC3=O)OC3=C2C(=O)CC(C)(C)C3)c(Br)cc1OCC(=O)O
inactive
48. C=CCC1NC(C)(C)Cc2ccccc21 (stereo not drawn)
inactive

----------
Tested on: MgrA (MarR family transcriptional regulator), Staphylococcus aureus Newman
procedureDetails: modulators of MgrA DNA binding – biochemical, S. aureus Newman, fluorescence polarization, primary screen (AID 602314);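 note: 0% = protein plus DNA without compound and 100% = DNA alone without protein; higher means less MgrA bound to DNA so lower polarization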
protocolConditions: concentration not given here
The whole screen tested about 84,000 compounds, of which about 110 (0.13%) were called active. Cut-off read from the data, not from the text of the source: active = inhibition above about 30% (passing the limit was not always enough); inactive = the rest. Only a selection was taken, and actives are over-represented in it overall.
Possible outcomes: active, inactive

1) NC(=O)c1c(NC(=O)c2ccccc2)sc2c1CCCC2
inactive
2) Cc1ccc(-c2nn(CCC(=O)NCCN3CCOCC3)c(=O)c3ccccc23)cc1
inactive
3) OCC(O)CN(c1ccccc1)c1ccccc1 (stereo unspecified)
inactive
4) O=C(O)C1=Cc2sc3c(c2CS1)CCCC3
active
5) COc1ccc(Cl)c2c1NC(c1ccncc1)C1CC=CC21 (stereo unspecified)
inactive
6) CC1=C(C(=O)OCC2CCCCC2)C(c2ccccc2OCc2ccccc2)NC(=O)N1 (stereo unspecified)
inactive

----------
Test system: MgrA (MarR family transcriptional regulator), Staphylococcus aureus Newman
procedureDetails: modulators of MgrA DNA binding – biochemical, S. aureus Newman, fluorescence polarization, primary screen (AID 602314);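 note: 0% = protein plus DNA without compound and 100% = DNA alone without protein; higher means less MgrA bound to DNA so lower polarization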
protocolConditions: active compounds read high, concentration not given here
Among all 84,000 compounds or so, about 110 (0.13%) were called active. Only a selection was taken, and actives are over-represented in it overall.
Reported inhibition by item:
measure: inhibition (%)

1. O=c1[nH]c2ccccc2c(=O)n1NS(=O)(=O)c1ccc2ccccc2c1
1.35
2. O=C(Nc1ccccc1-c1nc2ccccc2[nH]1)c1ccccc1Br
-2.6
3. CCOCCOC(=O)C1=C(C)NC2=C(C(=O)CC(c3ccccc3)C2)C1c1cc2c(cc1Br)OCO2 (stereo not given)
-2.9
4. CSc1noc(-c2ccc(C(C)(C)C)cc2)c1C#N
4.25
5. CCOc1ccc(NC(=O)c2cc(-c3ccc(OC)c(OC)c3)nc3ccccc23)c([N+](=O)[O-])c1
-1.4

----------
System: MgrA (MarR family transcriptional regulator), Staphylococcus aureus Newman
procedureDetails: modulators of MgrA DNA binding – biochemical, S. aureus Newman, fluorescence polarization, primary screen (AID 602314);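 note: 0% = protein plus DNA without compound and 100% = DNA alone without protein; higher means less MgrA bound to DNA so lower polarization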
protocolConditions: active compounds read high, concentration not given here
In all, about 84,000 compounds went through this assay and about 110 (0.13%) were called active. The list comes from a sample in which actives are over-represented; it also holds close analogues and randomly drawn compounds.
Reported inhibition by item:
measure: inhibition (%)

1. CCSc1nnc2c(n1)OC(c1cccc(OC)c1)Nc1ccccc1-2 (stereo unspecified)
-1.3
2. O=C(c1ccc(F)cc1)c1c[nH]c(C(=O)NCc2ccc(F)cc2)c1
-2.05
3. CC1CCCCN1C(=O)c1ccccc1F (stereo unspecified)
-1.4
4. COc1cccc(CNn2cn[nH]c2=S)c1OCc1ccccc1
0.8
5. O=C(CCSc1ccc(Cl)cc1)Nc1ccc(F)c(F)c1F
0.15
6. Cn1c(SCC(=O)Nc2ccc(C(F)(F)F)cc2)nnc1-c1ccc2nonc2c1
-0.1
7. O=C(OC(C(=O)c1ccccc1)c1ccccc1)c1cccc(O)c1 (stereo unspecified)
-1
8. COC(=O)c1cccnc1NC(=S)NC(C)C
3.15
9. N=Cc1c(O)n(-c2ccccc2)c2ccccc12
4.8
10. CC(C)(C)c1ccc(NC(=O)COC(=O)c2ccc(F)cc2F)cc1
4.8
11. Nc1ccccc1C(=O)Nc1ccc(Cl)cc1
-1.3
12. CCc1cccc(CC)c1N1C(=O)C(C)=C(C)C1=O
-0.9
13. CCN1CCCc2cc(CN(CCN3CCOCC3)C(=S)Nc3c(C)cc(C)cc3C)ccc21
4.95
14. FC(F)(F)c1cccc(CSc2ncn[nH]2)c1
-0.7
15. CCC(NC(=O)Nc1cc(C)cc(C)c1)c1c(-n2cccc2)sc2c1CCN(CC)C2 (stereo unspecified)
1
16. Cc1cccc(OCC(=O)N2CCc3ccccc32)c1
0.6
17. O=S(=O)(c1ccc(Cl)cc1)N1CCCN(Cc2ccc(Cl)cc2Cl)CC1
1
18. Cc1ccccc1Cn1nnc(-c2ccncc2)n1
-3.5
19. O=C(c1ccco1)N1CCN(c2cnn(-c3ccccc3)c(=O)c2Cl)CC1
-0.95
20. COC(=O)c1sc(-c2ccc(Cl)cc2)cc1NC(=O)c1ccc2nsnc2c1
-0.8
21. Cc1nc2onc(OCC(=O)OCc3ccccc3)c2c(C)c1C
0.6
22. O=C1/C(=C\c2cccs2)SC(=S)N1CCCC(=O)N1CCCc2ccccc21
2.75
23. Cc1cccc(CN2C(=O)CSc3nc(C)cc(C)c32)c1
-0.45
24. CC(C)(C)c1c[n+](-c2ccccc2)c2n1CCS2
0.1
25. N=C1/C(=C/c2ccc(SCc3ccccc3)o2)C(=O)N=C2SC=CN12
1.55
26. CCNc1sc(C(=O)OC)c(N)c1C#N
0.25
27. O=C1NC(=S)N(c2ccc(Br)cc2)C(=O)/C1=C/c1ccsc1
24.2
28. OC1(C(F)(F)F)CC(c2ccccc2)=NN1c1cccc2cccnc12 (stereo unspecified)
-1.3
29. CC1OC(O[C@H]2/C=C/C=C/C=C/C=C/C=C/C=C/C=C/[C@H](C)[C@@H](O)[C@@H](C)[C@H](C)OC(=O)CC(O)CC(O)CCC(O)C(O)CC(O)CC3(O)C[C@H](O)C(C(=O)O)C(C2)O3)C(O)[C@H](N)C1O (stereo partly specified)
2.9
30. COc1ccc2nc(SCC(=O)c3ccc(Cl)c(Cl)c3)[nH]c2c1
-2.6
31. Oc1[nH]c2ccccc2c1C=NCCC1=CCCCC1
5.65
32. CSc1nsc(SCC(=O)OC2CC(C)CCC2C(C)C)n1 (stereo unspecified)
0.7
33. CN(C(=O)c1cc2nc(-c3ccco3)cc(C(F)(F)F)n2n1)c1ccc(OC(F)(F)F)cc1
-0.95
34. Cc1nnc(SCc2ccc(C#N)cc2)s1
0.7
35. CCCn1nnnc1NC(=S)NC(=O)c1cc2ccccc2o1
3.35
36. O=C(Nc1ccccc1C(=O)N1CCCC1)Oc1ccccc1
-0.95
37. COc1ccc(CCN(Cc2cc3cc4c(cc3[nH]c2=O)OCO4)C(=O)c2ccncc2)cc1OC
2.6
38. N#CCc1ccc(OCc2ccc(Cl)c(Cl)c2)cc1
-1.9
39. Cn1c(SCC(=O)NCc2ccc(Cl)cc2)nnc1-c1ccc(Cl)cc1
-0.25
40. Cc1ccc(-c2nn(CCC(=O)Nc3cccc(C(F)(F)F)c3)c(=O)c3ccccc23)cc1
0.65
41. CN1C(=O)C2N=NN(c3ccccc3)C2C1=O (stereo unspecified)
1.8
42. O=C(O)c1ccc(Cl)cc1N=Cc1nc(-c2ccc(Br)cc2)oc1O
-0.9
43. Cc1nc(SCSc2nc3ccccc3s2)nc2c1CCCC2
0.6
44. N=C1/C(=C\c2cccn2-c2ccc3ccccc3c2)C(=O)N=C2SC=NN12
4.5
45. O=c1oc(Nc2ccc(C(F)(F)F)cc2)nc2ccccc12
0.2
46. Cc1cc(C)c(C(=O)N2CCCCC2C)c(C)c1 (stereo unspecified)
-0.7

src = PubChem BioAssay AID602314
